test system: ACHN; experiment: Antiproliferative activity against human ACHN cells assessed as growth inhibition after 48 hrs by sulforhodamine B assay; format: functional
For each of the molecules below, state its TGI.
Give bare numbers, in µM.

Use these answered entries as a reference point.
[
  {
    "structure smiles": "CNC(=O)c1cc(Oc2ccc3nc(NC(=O)Nc4ccc(Cl)c(Cl)c4)sc3c2)ccn1",
    "unit text": "µM",
    "endpoint result": 5.56
  },
  {
    "structure smiles": "CNC(=O)c1cc(Oc2ccc3nc(NC(=O)Nc4cc(C(F)(F)F)cc(C(F)(F)F)c4)sc3c2)ccn1",
    "unit text": "µM",
    "endpoint result": 1.98
  },
  {
    "structure smiles": "CNC(=O)c1cc(Oc2ccc3nc(NC(=O)c4cc(C(F)(F)F)cc(C(F)(F)F)c4)sc3c2)ccn1",
    "unit text": "µM",
    "endpoint result": 11.8
  },
  {
    "structure smiles": "CNC(=O)c1cc(Oc2ccc3nc(NC(=O)Nc4ccc(Cl)c(C(F)(F)F)c4)sc3c2)ccn1",
    "unit text": "µM",
    "endpoint result": 3.8
  }
]

Proceeding to the next molecule to report its TGI.
Report TGI for CNC(=O)c1cc(Oc2ccc(NC(=O)Nc3ccc(Cl)c(C(F)(F)F)c3)cc2)ccn1 please. 12.6
